Origin of values: patent US20180044393A1

Tested target: T1, Orexin receptor-1 (human OX1R, wild type) stably expressed in CHO-S cells (human, UniProt O43613 1-425)
T1 construct: Full-length OX1R cDNA fused at the C-terminus to YFP; also called wt-OX1R; CHO-S-OX1R; not shown: YFP from vector pEYFP-N2 fused at the C-terminus
T1 sequence: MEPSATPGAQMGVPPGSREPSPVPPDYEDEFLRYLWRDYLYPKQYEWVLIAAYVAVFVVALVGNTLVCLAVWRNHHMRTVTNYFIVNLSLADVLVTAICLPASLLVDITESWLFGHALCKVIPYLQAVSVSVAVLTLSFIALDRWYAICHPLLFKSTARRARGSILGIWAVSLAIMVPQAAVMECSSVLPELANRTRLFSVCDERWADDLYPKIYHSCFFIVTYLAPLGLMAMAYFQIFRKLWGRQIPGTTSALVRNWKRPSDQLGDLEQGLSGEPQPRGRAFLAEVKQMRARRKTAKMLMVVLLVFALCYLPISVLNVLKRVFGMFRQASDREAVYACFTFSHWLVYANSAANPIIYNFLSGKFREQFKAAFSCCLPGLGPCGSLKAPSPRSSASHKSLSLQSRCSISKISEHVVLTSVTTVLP
Assay explanation: competitive inhibition of 125I-OxA binding on CHO-S cells expressing human OX1R
Endpoint label: IC50 (nM)

{"Binder": "LQGRLQRLLQASGNHAAGILTM (synthetic deletion mutant of OxB; also called deletion of the first six residues of OxB) [OxB 7-28]", "Endpoint label": "IC50", "Recorded measurement": 388}
